Attribution: patent US20240084003A1

Parameter: OD450. Scope: all listed entries.
# experimental.target: T1, murine CD22 protein (ACROBiosystems, SI2-M52Ha) (murine, UniProt P35329 22-708)
# T1 construct: extracellular domain; also called murine CD22-ECD; murine CD22-ECD-His
# T1 sequence (looked up): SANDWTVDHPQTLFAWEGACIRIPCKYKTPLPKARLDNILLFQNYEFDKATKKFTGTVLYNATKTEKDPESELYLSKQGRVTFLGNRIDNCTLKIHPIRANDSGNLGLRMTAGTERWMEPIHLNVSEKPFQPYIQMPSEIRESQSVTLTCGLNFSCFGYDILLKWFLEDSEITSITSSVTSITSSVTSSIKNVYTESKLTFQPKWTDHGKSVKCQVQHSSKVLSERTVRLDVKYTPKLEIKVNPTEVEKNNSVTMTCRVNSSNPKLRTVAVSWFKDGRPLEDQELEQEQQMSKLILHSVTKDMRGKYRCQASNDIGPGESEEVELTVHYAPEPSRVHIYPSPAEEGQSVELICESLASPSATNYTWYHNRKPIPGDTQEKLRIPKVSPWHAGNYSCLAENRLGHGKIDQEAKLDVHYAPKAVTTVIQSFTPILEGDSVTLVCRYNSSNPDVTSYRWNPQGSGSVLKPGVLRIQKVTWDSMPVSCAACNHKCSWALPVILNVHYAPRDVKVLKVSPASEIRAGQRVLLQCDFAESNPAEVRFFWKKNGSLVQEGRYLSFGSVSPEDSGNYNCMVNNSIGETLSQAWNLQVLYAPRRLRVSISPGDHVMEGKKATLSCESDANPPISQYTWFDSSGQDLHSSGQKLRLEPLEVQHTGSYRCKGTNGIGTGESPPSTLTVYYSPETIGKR
# experiment.description: ELISA, coated murine CD22, 0.001 nM Ab
A number alone suffices; assume OD450.

Recorded OD450 (binder F1.245.2 human-murine chimeric antibody (antibody, human IgG1, kappa, V domains shown, Chimeric, human IgG1 / kappa) VH: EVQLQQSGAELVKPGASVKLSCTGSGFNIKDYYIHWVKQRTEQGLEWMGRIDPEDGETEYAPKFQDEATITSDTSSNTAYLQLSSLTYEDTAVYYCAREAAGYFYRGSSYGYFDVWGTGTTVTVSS VL: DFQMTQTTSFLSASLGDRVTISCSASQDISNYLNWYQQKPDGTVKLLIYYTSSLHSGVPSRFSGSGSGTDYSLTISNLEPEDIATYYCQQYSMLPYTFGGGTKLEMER ): 0.06

Recorded OD450 (binder F2.343.16 human-murine chimeric antibody (antibody, human IgG1, lambda, V domains shown, Chimeric, human IgG1 / lambda; VL tied by name) VH: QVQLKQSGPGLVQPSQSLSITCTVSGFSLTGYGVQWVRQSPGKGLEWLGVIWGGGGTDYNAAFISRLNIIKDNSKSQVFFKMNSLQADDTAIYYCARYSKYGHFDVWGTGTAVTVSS VL: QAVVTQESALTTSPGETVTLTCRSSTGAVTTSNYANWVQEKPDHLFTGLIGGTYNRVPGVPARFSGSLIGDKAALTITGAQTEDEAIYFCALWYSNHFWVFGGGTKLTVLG ): 0.05

Recorded OD450 (binder F1.231.15 human-murine chimeric antibody (antibody, human IgG1, V domains shown, Chimeric: murine V regions on human IgG1 heavy constant region and kappa light constant region) VH: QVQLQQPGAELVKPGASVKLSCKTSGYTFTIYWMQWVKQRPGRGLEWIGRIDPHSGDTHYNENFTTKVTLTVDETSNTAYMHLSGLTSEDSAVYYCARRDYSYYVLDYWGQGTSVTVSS VL: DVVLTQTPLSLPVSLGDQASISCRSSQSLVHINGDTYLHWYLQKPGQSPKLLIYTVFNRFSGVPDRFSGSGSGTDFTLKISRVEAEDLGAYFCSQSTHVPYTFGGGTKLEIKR ): 0.05
